biological target: HEK cells stably transfected with tetracycline inducible hNR1 and hNR2A (Homo sapiens (Human), UniProt Q05586+Q12879); experiment: Assay 1: Cell-Based Assay (cytosolic calcium, positive allosteric modulation); settings: HEK293; scaled relative to 100 μM L-glutamate maximal response (100%) and 0 μM L-glutamate (0%); with 30 μM glycine and 300 nM L-glutamate; read-out: Max %
Sequence (Q12879 23-1464, other chains not shown): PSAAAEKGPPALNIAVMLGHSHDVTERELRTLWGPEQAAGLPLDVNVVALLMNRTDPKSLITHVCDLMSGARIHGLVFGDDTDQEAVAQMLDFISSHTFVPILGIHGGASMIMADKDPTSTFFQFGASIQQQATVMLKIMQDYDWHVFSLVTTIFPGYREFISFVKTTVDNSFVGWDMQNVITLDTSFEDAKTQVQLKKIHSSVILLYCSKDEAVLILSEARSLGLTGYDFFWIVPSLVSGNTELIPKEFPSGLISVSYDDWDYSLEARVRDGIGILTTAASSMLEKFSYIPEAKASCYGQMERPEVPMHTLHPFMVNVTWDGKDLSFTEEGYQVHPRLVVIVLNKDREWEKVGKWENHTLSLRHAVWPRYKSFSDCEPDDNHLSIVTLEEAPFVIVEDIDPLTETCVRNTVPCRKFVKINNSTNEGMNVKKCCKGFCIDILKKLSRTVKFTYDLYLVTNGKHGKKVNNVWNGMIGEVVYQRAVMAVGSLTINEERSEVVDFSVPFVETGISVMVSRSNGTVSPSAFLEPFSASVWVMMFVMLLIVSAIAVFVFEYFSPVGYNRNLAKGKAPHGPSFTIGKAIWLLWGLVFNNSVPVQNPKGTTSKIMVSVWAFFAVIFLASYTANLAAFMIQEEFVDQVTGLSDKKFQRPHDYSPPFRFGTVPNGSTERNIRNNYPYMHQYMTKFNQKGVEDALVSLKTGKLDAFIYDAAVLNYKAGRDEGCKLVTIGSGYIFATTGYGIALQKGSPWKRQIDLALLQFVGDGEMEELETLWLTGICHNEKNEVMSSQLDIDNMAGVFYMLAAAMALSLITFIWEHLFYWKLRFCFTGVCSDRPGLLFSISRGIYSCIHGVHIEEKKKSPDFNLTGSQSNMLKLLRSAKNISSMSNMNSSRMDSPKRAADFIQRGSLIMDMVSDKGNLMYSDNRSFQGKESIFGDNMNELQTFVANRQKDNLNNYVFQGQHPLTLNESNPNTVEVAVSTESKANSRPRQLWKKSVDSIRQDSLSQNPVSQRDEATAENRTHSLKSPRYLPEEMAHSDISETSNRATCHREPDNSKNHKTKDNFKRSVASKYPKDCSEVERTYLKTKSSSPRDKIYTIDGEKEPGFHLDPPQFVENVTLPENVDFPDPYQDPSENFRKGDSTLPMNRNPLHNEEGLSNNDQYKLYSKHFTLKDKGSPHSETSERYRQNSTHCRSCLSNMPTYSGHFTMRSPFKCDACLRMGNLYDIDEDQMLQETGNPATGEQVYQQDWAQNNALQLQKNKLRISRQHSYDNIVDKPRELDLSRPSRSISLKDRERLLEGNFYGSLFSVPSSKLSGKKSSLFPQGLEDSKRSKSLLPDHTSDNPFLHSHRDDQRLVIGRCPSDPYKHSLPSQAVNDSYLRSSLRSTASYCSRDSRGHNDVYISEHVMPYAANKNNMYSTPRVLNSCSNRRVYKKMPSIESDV
Kindly state Emax for each of the entries shown.

Lookup: Output measured Emax for this item: Cc1ccc2nc(Cn3nc(C(F)(F)F)cc3Cl)cc(=O)n2c1[C@@H]1C[C@H]1CO [Compound 36]
Found: 135%

Lookup: Output measured Emax for this item: CCNC(=O)c1c(C)ccc2nc(Cn3ccc(C(F)(F)F)n3)cc(=O)n12 [Compound 28]
Found: 60%

Lookup: Output measured Emax for this item: N#C[C@H]1C[C@@H]1c1c(Cl)ccc2nc(Cn3nc(C(F)(F)F)cc3Cl)cc(=O)n12 [Compound 42]
Found: 110%

Lookup: Output measured Emax for this item: CCNC(=O)c1cc(C)cc2nc(Cn3nc(C(F)(F)F)cc3C3CC3)cc(=O)n12 [Compound 32]
Found: 136%

Lookup: Output measured Emax for this item: CCN(Cc1cc(=O)n2c(-c3ccco3)cccc2n1)c1ccc(F)cc1 [Compound 13]
Found: 172%

Lookup: Output measured Emax for this item: Cc1ccc2nc(Cn3nc(C(F)(F)F)cc3Cl)cc(=O)n2c1[C@H]1C[C@@H]1CO [Compound 37]
Found: 127%

Lookup: Output measured Emax for this item: CCNC(=O)c1c(C)ccc2nc(COc3ccc(F)cc3)cc(=O)n12 [Compound 16]
Found: 159%

Lookup: Output measured Emax for this item: N#C[C@@H]1C[C@H]1c1cccc2nc(Cn3nc(C(F)(F)F)cc3Cl)cc(=O)n12 [Compound 40]
Found: 148%

Lookup: Output measured Emax for this item: Cc1cc(C2CC2C#N)n2c(=O)cc(Cn3nc(Cl)cc3C(F)(F)F)nc2c1 (stereo not drawn) [Compound 43]
Found: 145%

Lookup: Output measured Emax for this item: CNC(=O)c1c(C)ccc2nc(Cc3cccc(Cl)c3F)cc(=O)n12 [Compound 23]
Found: 59%

Lookup: Output measured Emax for this item: CC(=O)c1c(C)ccc2nc(Cn3nc(Cl)cc3C(F)(F)F)cc(=O)n12 [Compound 51]
Found: 114%

Lookup: Output measured Emax for this item: CCNC(=O)c1cccc2nc(Cn3nc(C(F)(F)F)cc3C3CC3)cc(=O)n12 [Compound 20]
Found: 116%

Lookup: Output measured Emax for this item: CCN(Cc1cc(=O)n2c(-c3cncnc3)cccc2n1)c1ccc(F)cc1 [Compound 12]
Found: 161%

Lookup: Output measured Emax for this item: Cc1cc([C@H]2C[C@@H]2C#N)n2c(=O)cc(Cn3nc(C(F)(F)F)cc3Cl)nc2c1 [Compound 39]
Found: 120%

Lookup: Output measured Emax for this item: CCOc1cccc2nc(CN(CC)c3ccc(F)cc3)cc(=O)n12 [Compound 9]
Found: 120%

Lookup: Output measured Emax for this item: Cc1ccc2nc(Cn3nc(C(F)(F)F)cc3Cl)cc(=O)n2c1[C@@H]1C[C@H]1C#N [Compound 35]
Found: 132%

Lookup: Output measured Emax for this item: Cc1ccc2nc(Cn3nc(C(F)(F)F)cc3C3CC3)cc(=O)n2c1C(=O)NCC(F)(F)F [Compound 33]
Found: 198%

Lookup: Output measured Emax for this item: CNC(=O)c1c(C)ccc2nc(Cn3nc(C(F)(F)F)cc3C3CC3)cc(=O)n12 [Compound 29]
Found: 147%

Lookup: Output measured Emax for this item: CCN(Cc1cc(=O)n2c(C#N)cccc2n1)c1ccc(F)cc1 [Compound 14]
Found: 163%

Lookup: Output measured Emax for this item: O=c1cc(Cn2nc(C(F)(F)F)cc2Cl)nc2ccccn12 [Compound 48]
Found: 73%

Lookup: Output measured Emax for this item: CCN(Cc1cc(=O)n2c(OC)c(C)ccc2n1)c1ccc(F)cc1 [Compound 10]
Found: 51%

Lookup: Output measured Emax for this item: N#C[C@@H]1C[C@H]1c1c(F)ccc2nc(Cn3nc(C(F)(F)F)cc3Cl)cc(=O)n12 [Compound 45]
Found: 151%

Lookup: Output measured Emax for this item: N#C[C@H]1C[C@@H]1c1c(F)ccc2nc(Cn3nc(C(F)(F)F)cc3Cl)cc(=O)n12 [Compound 46]
Found: 107%

Lookup: Output measured Emax for this item: CNC(=O)c1c(C)ccc2nc(Cc3cccc(C4CC4)c3F)cc(=O)n12 [Compound 24]
Found: 67%

Lookup: Output measured Emax for this item: COc1ccc2nc(Cn3nc(Cl)cc3Cl)cc(=O)n2c1C1CC1C (stereo not drawn) [Compound 55]
Found: 116%

Lookup: Output measured Emax for this item: CCN(Cc1cc(=O)n2cc(C)ccc2n1)c1ccccc1 [Compound 3]
Found: 122%

Lookup: Output measured Emax for this item: O=c1cc(Cn2nc(C(F)(F)F)cc2Cl)nc2cc(C(F)(F)F)cc(Cl)n12 [Compound 54]
Found: 150%

Lookup: Output measured Emax for this item: CC(=O)c1c(C)ccc2nc(Cn3nc(C(F)(F)F)cc3Cl)cc(=O)n12 [Compound 50]
Found: 124%

Lookup: Output measured Emax for this item: CCNC(=O)c1c(C)ccc2nc(Cn3nc(C4CC4)cc3C(F)(F)F)cc(=O)n12 [Compound 18]
Found: 122%

Lookup: Output measured Emax for this item: Cc1ccc2nc(CN(C)c3ccccc3)cc(=O)n2c1 [Compound 2]
Found: 75%

====

target: HEK cells stably transfected with tetracycline inducible hNR1 and hNR2A (Homo sapiens (Human), UniProt Q05586+Q12879); test: Assay 1: Cell-Based Assay (cytosolic calcium, positive allosteric modulation); settings: with 30 μM glycine and 300 nM L-glutamate (EC30); given for compounds reaching maximal response plateaus
ENDPOINT_LABEL: pEC50
// pEC50 is dimensionless: -log10 of concentration (M)

Lookup: Output measured pEC50 for this item: `CCN(Cc1cc(=O)n2c(C(=O)NC)c(C)ccc2n1)c1ccc(F)cc1`
Found: 5.57

Lookup: Output measured pEC50 for this item: `O=c1cc(Cn2nc(C(F)(F)F)cc2Cl)nc2ccccn12`
Found: 4.49

Lookup: Output measured pEC50 for this item: `N#C[C@H]1C[C@@H]1c1cccc2nc(Cn3nc(C(F)(F)F)cc3Cl)cc(=O)n12`
Found: 5.54

Lookup: Output measured pEC50 for this item: COc1ccc2nc(Cn3nc(Cl)cc3Cl)cc(=O)n2c1C1CC1C (stereo not drawn)
Found: 6.99

Lookup: Output measured pEC50 for this item: `CCN(Cc1cc(=O)n2c(C#N)cccc2n1)c1ccc(F)cc1`
Found: 5.24

Lookup: Output measured pEC50 for this item: `N#C[C@@H]1C[C@H]1c1cc(C(F)(F)F)cc2nc(Cn3nc(C(F)(F)F)cc3Cl)cc(=O)n12`
Found: 6.91

Lookup: Output measured pEC50 for this item: `CC(=O)c1c(C)ccc2nc(Cn3nc(C(F)(F)F)cc3Cl)cc(=O)n12`
Found: 5.11

Lookup: Output measured pEC50 for this item: `Cc1ccc2nc(Cn3nc(C(F)(F)F)cc3Cl)cc(=O)n2c1[C@@H]1C[C@H]1C#N`
Found: 7.11

Lookup: Output measured pEC50 for this item: `CC(=O)c1cccc2nc(Cn3nc(C(F)(F)F)cc3Cl)cc(=O)n12`
Found: 4.91

====

biological target: HEK cells stably transfected with tetracycline inducible hNR1 and hNR2A (Homo sapiens (Human), UniProt Q05586+Q12879); assay: Assay 1: Cell-Based Assay (cytosolic calcium, positive allosteric modulation); conditions: HEK293; scaled relative to 100 μM L-glutamate maximal response (100%) and 0 μM L-glutamate (0%); with 30 μM glycine and 300 nM L-glutamate; read-out: Max %
ENDPOINT_LABEL: Emax (%)
Only the number, expressed in %, is required.

Lookup: Output measured Emax for this item: `CCc1cccc2nc(CN(CC)c3ccc(F)cc3)cc(=O)n12`
Found: 134

Lookup: Output measured Emax for this item: `COc1ccc2nc(Cn3nc(C(F)(F)F)cc3Cl)cc(=O)n2c1[C@H]1C[C@@H]1C#N`
Found: 100

Lookup: Output measured Emax for this item: `CCOc1c(C)ccc2nc(CN(CC)c3ccc(F)cc3)cc(=O)n12`
Found: 53

Lookup: Output measured Emax for this item: `CNC(=O)c1c(C)ccc2nc(Cc3cccc(Cl)c3F)c(F)c(=O)n12`
Found: 48

Lookup: Output measured Emax for this item: `CCc1cccc2nc(CN(CC)c3ccccc3)cc(=O)n12`
Found: 138

Lookup: Output measured Emax for this item: `CNC(=O)c1c(C)ccc2nc(Cc3cccc(C#N)c3F)cc(=O)n12`
Found: 51

Lookup: Output measured Emax for this item: `CNC(=O)c1c(C)ccc2nc(Cc3cccc(C(F)(F)F)c3F)cc(=O)n12`
Found: 69

Lookup: Output measured Emax for this item: `Cc1cc([C@@H]2C[C@H]2C#N)n2c(=O)cc(Cn3nc(C(F)(F)F)cc3Cl)nc2c1`
Found: 144

Lookup: Output measured Emax for this item: `CCN(Cc1cc(=O)n2c(Br)cccc2n1)c1ccc(F)cc1`
Found: 159

Lookup: Output measured Emax for this item: `CCN(Cc1cc(=O)n2c(C(=O)NC)c(C)ccc2n1)c1ccc(F)cc1`
Found: 162

Lookup: Output measured Emax for this item: `Cc1cc([C@@H]2C[C@H]2C#N)n2c(=O)cc(Cn3nc(Cl)cc3Cl)nc2c1`
Found: 154

Lookup: Output measured Emax for this item: N#CC1CC1c1c(F)ccc2nc(Cn3nc(Cl)cc3C(F)(F)F)cc(=O)n12 (stereo not drawn)
Found: 200

Lookup: Output measured Emax for this item: `CCN(Cc1cc(=O)n2c(C)cccc2n1)c1ccc(F)cc1`
Found: 111

Lookup: Output measured Emax for this item: Cc1ccc2nc(Cn3nc(Cl)cc3C(F)(F)F)cc(=O)n2c1C1CC1C#N (stereo not drawn)
Found: 158

Lookup: Output measured Emax for this item: `CNC(=O)c1c(C)ccc2nc(Cc3cccc(C#N)c3F)c(F)c(=O)n12`
Found: 34

Lookup: Output measured Emax for this item: `CCNC(=O)c1c(C)ccc2nc(Cn3nc(C(F)(F)F)cc3C3CC3)cc(=O)n12`
Found: 148

Lookup: Output measured Emax for this item: `COc1ccc2nc(Cn3nc(C(F)(F)F)cc3Cl)cc(=O)n2c1[C@@H]1C[C@H]1C#N`
Found: 120

Lookup: Output measured Emax for this item: `N#C[C@H]1C[C@@H]1c1cccc2nc(Cn3nc(C(F)(F)F)cc3Cl)cc(=O)n12`
Found: 111
